These entries and their values trace back to paper PMC6178183.

Assay: Stability of analytes in rat plasma QC samples under storage conditions
Type: in vitro ADME
Conditions: rat plasma, n=6; medium QC: spiked 200 ng/mL glycyrrhizic acid; 100 liquiritin; 20 emodin, gallic acid, ononin, schisandrin, stilbene glycoside; 10 isoliquiritigenin, liquiritigenin, rhein, verbascoside
readout_name: Measured Concentration, room temperature for 6 h (ng/mL)

Example molecules with recorded Measured Concentration, room temperature for 6 h:
* CC1(C)[C@@H](O[C@H]2O[C@H](C(=O)O)[C@@H](O)[C@H](O)[C@H]2O[C@@H]2O[C@H](C(=O)O)[C@@H](O)[C@H](O)[C@H]2O)CC[C@]2(C)[C@H]3C(=O)C=C4[C@@H]5C[C@@](C)(C(=O)O)CC[C@]5(C)CC[C@@]4(C)[C@]3(C)CC[C@@H]12 [glycyrrhizic acid] | 203.22
* O=C(O)c1cc(O)c(O)c(O)c1 [gallic acid] | 20.77
* COc1cc2c(c(OC)c1OC)-c1c(cc(OC)c(OC)c1OC)C[C@](C)(O)[C@@H](C)C2 [schisandrin] | 21.15
* Cc1cc(O)c2c(c1)C(=O)c1cc(O)cc(O)c1C2=O [emodin] | 21.14
* O=C(/C=C/c1ccc(O)cc1)c1ccc(O)cc1O [isoliquiritigenin] | 10.86
* COc1ccc(-c2coc3cc(O[C@@H]4O[C@H](CO)[C@@H](O)[C@H](O)[C@H]4O)ccc3c2=O)cc1 [ononin] | 20.57
* O=C(O)c1cc(O)c2c(c1)C(=O)c1cccc(O)c1C2=O [rhein] | 10.23
* C[C@@H]1O[C@@H](O[C@@H]2[C@@H](O)[C@H](OCCc3ccc(O)c(O)c3)O[C@H](CO)[C@H]2OC(=O)/C=C/c2ccc(O)c(O)c2)[C@H](O)[C@H](O)[C@H]1O [verbascoside] | 9.57

(a) O=C1C[C@@H](c2ccc(O[C@@H]3O[C@H](CO)[C@@H](O)[C@H](O)[C@H]3O)cc2)Oc2cc(O)ccc21 [liquiritin]
(b) O=C1C[C@@H](c2ccc(O)cc2)Oc2cc(O)ccc21 [liquiritigenin]
Hi there! Just curious which has the higher Measured Concentration, room temperature for 6 h between a and b . Reply with the label of the item you choose. a

---

Assay: Pharmacokinetic study in rats after oral administration of TMYX extract (HPLC-MS/MS of plasma)
Format: in vivo, Sprague–Dawley rats
Conditions: male, Sprague-Dawley; rat plasma, oral TMYX extract 8.3 g/kg single dose, n=6; read-out: AUC (0-tn)
readout_name: AUC (µg·h/mL)

* OC[C@H]1O[C@@H](Oc2c(O)cc(O)cc2/C=C/c2ccc(O)cc2)[C@H](O)[C@@H](O)[C@@H]1O [stilbene glycoside] | 0.284
* CC1(C)[C@@H](O[C@H]2O[C@H](C(=O)O)[C@@H](O)[C@H](O)[C@H]2O[C@@H]2O[C@H](C(=O)O)[C@@H](O)[C@H](O)[C@H]2O)CC[C@]2(C)[C@H]3C(=O)C=C4[C@@H]5C[C@@](C)(C(=O)O)CC[C@]5(C)CC[C@@]4(C)[C@]3(C)CC[C@@H]12 [glycyrrhizic acid] | 12.7
* O=C1C[C@@H](c2ccc(O[C@@H]3O[C@H](CO)[C@@H](O)[C@H](O)[C@H]3O)cc2)Oc2cc(O)ccc21 [liquiritin] | 0.637
* C[C@@H]1O[C@@H](O[C@@H]2[C@@H](O)[C@H](OCCc3ccc(O)c(O)c3)O[C@H](CO)[C@H]2OC(=O)/C=C/c2ccc(O)c(O)c2)[C@H](O)[C@H](O)[C@H]1O [verbascoside] | 0.0514
* Cc1cc(O)c2c(c1)C(=O)c1cc(O)cc(O)c1C2=O [emodin] | 0.476

(1) O=C1C[C@@H](c2ccc(O)cc2)Oc2cc(O)ccc21 [liquiritigenin]
(2) O=C(O)c1cc(O)c2c(c1)C(=O)c1cccc(O)c1C2=O [rhein]
When the recorded AUC values are compared, which is smaller: that of 1 or that of 2 ? Reply with the label of the item you choose. 2
(2: 0.145 µg·h/mL, 1: 0.315 µg·h/mL)
